Value source: PubChem BioAssay (NCI)

Attribute: growth inhibition
- ASSAY OVERVIEW: NCI Yeast Anticancer Drug Screen. Data for the bub3 strain (AID 167)
- EXPERIMENTAL CONDITIONS: S. cerevisiae bub3 mutant strain, at 3.7 µM, stronger effect = higher value
About 79,000 compounds went through this panel and 15% of them were active in at least one assay; those are over-represented in the sample as a whole.
A number alone suffices; assume %.

{"COMPOUND": "COC(=O)/C(C#N)=C\\NC(=S)C(N)=S", "growth inhibition [%]": 34}

Ask: Identify measured growth inhibition corresponding to CC(C)OC(=O)NNc1cccc(Cl)c1
Result: 44

Ask: Identify measured growth inhibition corresponding to Nc1cc2c(cc1N)-c1ccccc1C2=O
Result: 1

Ask: Identify measured growth inhibition corresponding to O=C1C(=C2CCCC2)CCC1CN1CCCCC1 (centres undefined)
Result: 10

Ask: Identify measured growth inhibition corresponding to CCO/C=C1\SC(=S)N(c2ccc(OCC)cc2)C1=O
Result: -4

Ask: Identify measured growth inhibition corresponding to c1ccc2c(c1)N=C1CCCC3CCCC123 (centres undefined)
Result: 10

Ask: Identify measured growth inhibition corresponding to C1=CCN([B-](c2ccccc2)[C+]2CCCCC2)C=C1
Result: -1

Ask: Identify measured growth inhibition corresponding to Cc1ccc(Nc2n[nH]c(=S)s2)c(C)c1
Result: 10

Ask: Identify measured growth inhibition corresponding to CCOC(=S)SSSC(=S)OCC
Result: -4

Ask: Identify measured growth inhibition corresponding to O=c1c2ccccc2nc(-c2cccc([N+](=O)[O-])c2)n1O
Result: 5

Ask: Identify measured growth inhibition corresponding to Cc1ccc(C)c(C(=N)c2ccccc2Cc2ccccc2)c1
Result: 29

Ask: Identify measured growth inhibition corresponding to Cc1ccccc1NC(=O)c1c(C)oc2c1C(=O)c1ccccc1C2=O
Result: -36

Ask: Identify measured growth inhibition corresponding to CC1CCC(C2=CSC3CCCCC3N2)CC1 (centres undefined)
Result: -4

Ask: Identify measured growth inhibition corresponding to CC(C)C(c1ccccc1)c1ccccc1
Result: 1

###

- ASSAY OVERVIEW: NCI Yeast Anticancer Drug Screen. Data for the sgs1 strain (AID 173);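 further: 0% = growth of vehicle-only control cultures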
- EXPERIMENTAL CONDITIONS: S. cerevisiae sgs1 mutant, at 1.2 µM, stronger effect = higher value
The panel holds about 79,000 compounds, 15% with a hit somewhere; the sample as a whole holds those more often.
Attribute: growth inhibition
A number alone suffices; assume %.

Study these solved cases before continuing.
{"COMPOUND": "CC1=NN(C(=O)CC(=O)NC(=O)/C=C\\c2ccccc2)C(=O)C1N=Nc1ccc([N+](=O)[O-])cc1 (stereo unspecified)", "MEASURE NAME": "growth inhibition", "MEASURE UNIT": "%", "QUANTITATIVE READOUT": 2}
{"COMPOUND": "O=C(CCCN1CCC(Nc2ccc(F)cc2)(c2nnnn2C2CCCCC2)CC1)c1ccc(F)cc1", "MEASURE NAME": "growth inhibition", "MEASURE UNIT": "%", "QUANTITATIVE READOUT": -1}
{"COMPOUND": "CC(C)(N=Nc1ccc(Cl)cc1)[N+](=O)[O-]", "MEASURE NAME": "growth inhibition", "MEASURE UNIT": "%", "QUANTITATIVE READOUT": 11}

Ask: Identify measured growth inhibition corresponding to COc1ccccc1NC(=O)c1ccc(Cl)cc1
Result: 0

Ask: Identify measured growth inhibition corresponding to CC1CCN(CCC(=O)c2ccc([N+](=O)[O-])cc2)CC1
Result: 2

Ask: Identify measured growth inhibition corresponding to O=C1c2cccc3cccc(c23)C(=O)N1CCNCCN1C(=O)c2cccc3cccc(c23)C1=O
Result: -1

Ask: Identify measured growth inhibition corresponding to CCCCCCNCCCNc1c2cc(OC)ccc2nc2cccc([N+](=O)[O-])c12
Result: 21

Ask: Identify measured growth inhibition corresponding to CCN(CC)C(=S)SC(=S)N(CC)CC
Result: -43

Ask: Identify measured growth inhibition corresponding to Cc1ccc(S(=O)(=O)N/N=C/C(Br)=C(/Br)C(=O)O)cc1
Result: 28

Ask: Identify measured growth inhibition corresponding to C=C(C(=O)OC)N1C(=O)CC(C)C1=O (stereo unspecified)
Result: 0

###

Attribute: growth inhibition
- ASSAY OVERVIEW: NCI Yeast Anticancer Drug Screen. Data for the mgt1 strain (AID 153)
- EXPERIMENTAL CONDITIONS: S. cerevisiae mgt1 mutant growth inhibition; at 3.7 µM; stronger effect = higher value
Compounds without any hit were thinned out: in the full panel of roughly 79,000, 15% have a hit.
A number alone suffices; assume %.

{"COMPOUND": "O=C(O)c1ccccc1C(=O)OC1CCc2ccccc2C1 (stereo unspecified)", "MEASURE UNIT": "%", "QUANTITATIVE READOUT": -6}
{"COMPOUND": "Cc1cc(OCc2nc(N)nc(N)c2-c2ccc(Cl)c(Cl)c2)ccc1[N+](=O)[O-]", "MEASURE UNIT": "%", "QUANTITATIVE READOUT": 5}
{"COMPOUND": "COc1ccc(N=c2cc(-c3ccccc3)oc3ccccc23)cc1", "MEASURE UNIT": "%", "QUANTITATIVE READOUT": 1}
{"COMPOUND": "CCC(/C=C/c1ccccc1)=N\\Nc1ccc(Cl)cc1", "MEASURE UNIT": "%", "QUANTITATIVE READOUT": 4}
{"COMPOUND": "O=C(Nc1cccs1)c1ccccc1", "MEASURE UNIT": "%", "QUANTITATIVE READOUT": -4}

// next item, growth inhibition requested
Ask: Identify measured growth inhibition corresponding to O=C(O)C1CCCCC1c1c2ccc(=O)cc-2oc2cc(O)ccc12 (stereo unspecified)
Result: 16

###

- ASSAY OVERVIEW: NCI Yeast Anticancer Drug Screen. Data for the rad52 strain (AID 147);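 further: 0% = growth of vehicle-treated control cultures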
- EXPERIMENTAL CONDITIONS: S. cerevisiae rad52 mutant growth inhibition; at 11.0 µM; stronger effect = higher value
The panel holds about 79,000 compounds, 15% with a hit somewhere; the sample as a whole holds those more often.
MEASURE NAME: growth inhibition (%)
A number alone suffices; assume %.

Study these solved cases before continuing.
{"COMPOUND": "N#CCC(=O)N/N=C(\\c1ccccc1)C(c1ccccc1)C1(O)C(=O)Nc2c(Cl)ccc(Cl)c21 (centres undefined)", "QUANTITATIVE READOUT": 3}
{"COMPOUND": "CC(=O)O[C@H]1CC[C@@]2(C)C(=CC[C@@H]3C2CC[C@]2(C)C(=O)NC(=O)CC32)C1 (some centres undefined)", "QUANTITATIVE READOUT": -42}
{"COMPOUND": "CC(=O)CC(c1ccccc1)c1c(O)c2ccccc2oc1=O (centres undefined)", "QUANTITATIVE READOUT": -4}

Ask: Identify measured growth inhibition corresponding to CC(/C=C/c1ccc([N+](=O)[O-])o1)=N/N1CC(CN2CCOCC2)OC1=O (centres undefined)
Result: 48

Ask: Identify measured growth inhibition corresponding to O=[N+]([O-])c1cn[n+]([O-])c2ccccc12
Result: 90

Ask: Identify measured growth inhibition corresponding to CC(C)OC(=O)NNc1cc(Cl)ccc1Cl
Result: 41

Ask: Identify measured growth inhibition corresponding to CN(C)CCNc1ccc2ncn3c4ccc(O)cc4c(=O)c1c23
Result: 4

Ask: Identify measured growth inhibition corresponding to O=C(O)c1c2ccc(Cl)cc2nc2[nH]c(=O)[nH]c(=O)c12
Result: -25

Ask: Identify measured growth inhibition corresponding to COC(=O)C1=C(C(=O)OC)CC(n2nnc(C(=O)OC)c2C(=O)OC)=CC1
Result: 2

Ask: Identify measured growth inhibition corresponding to O=c1c2ccccc2nc(-c2ccc(Cl)cc2)n1O
Result: 96

Ask: Identify measured growth inhibition corresponding to CCOc1ccc(N)c(S)c1
Result: 10

Ask: Identify measured growth inhibition corresponding to c1ccc([P+](CCN2Cc3ccccc3C2)(c2ccccc2)c2ccccc2)cc1
Result: 39

Ask: Identify measured growth inhibition corresponding to CCCCN(CCC#N)c1ccc(/C=C/c2ccnc3ccccc23)cc1
Result: -9

Ask: Identify measured growth inhibition corresponding to CN(C)/C(=N/C(=S)Nc1ccccc1)SCc1ccccc1
Result: -2

Ask: Identify measured growth inhibition corresponding to CC1(C)C(O)OC(O)C1(C)C (centres undefined)
Result: 2

Ask: Identify measured growth inhibition corresponding to CC1(C)CC(=O)C(C(=O)Nc2cccs2)=C(O)C1
Result: 17

###

- ASSAY OVERVIEW: NCI Yeast Anticancer Drug Screen. Data for the mlh1 strain (AID 171);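 further: 0% = growth of vehicle-treated control cultures of the same strain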
- EXPERIMENTAL CONDITIONS: S. cerevisiae mlh1 strain growth inhibition; at 33.0 µM; stronger effect = higher value
- Method: Growth inhibition of yeast strains with defined genetic alterations is measured as a screen for potential anti-cancer activity. Selected strains with alterations in DNA damage repair or cell cycle control were exposed to compounds and growth inhibition was measured relative to vehicle treated controls. The strain used in this assay is mlh1
The panel holds about 79,000 compounds, 15% with a hit somewhere; the sample as a whole holds those more often. Residues, ends and D or L forms follow the SMILES beside them. *: point of attachment. Fmoc = O=C(OCC1c2ccccc2-c2ccccc21)*; Boc = CC(C)(C)OC(=O)*
Please use Met whenever growth inhibition is not below 50%, and Not met whenever it is.

Ask: Form field: growth inhibition at least 50%? Entry: CC(C)(C)OC(=O)NCCCCC(NC(=O)C(Cc1c[nH]c2ccccc12)NC(=O)OCC1c2ccccc2-c2ccccc21)C(=O)O (stereo unspecified) (Fmoc-Trp-Lys(Boc)-OH; configuration not given here)
Result: Not met
